Data credit: ChEMBL document CHEMBL1143603

testTarget: Liver carboxylesterase 1 (Oryctolagus cuniculus)
testProtocol: Inhibition constant against rabbit liver carboxylesterase using CPT-11
measurementName: pKi
# pKi = -log10(concentration in molar units)

Exercise: Query (compound): `O=C(C(=O)c1ccc(Cl)cc1)c1ccc(Cl)cc1` ; field requested: pKi
Key: 7.37

Exercise: Bench note: what pKi did `Cc1ccc(C(=O)C(=O)c2ccccc2)cc1C` show?
Key: 6.62

Exercise: Reported pKi, compound `O=C(C(=O)c1ccc(C(=O)C(=O)c2ccccc2)cc1)c1ccccc1` : ____
Key: 7.85

Exercise: Need pKi of `O=C(C(=O)c1ccc(Br)cc1)c1ccc(Br)cc1` , thanks.
Key: 7.60

Exercise: Query: pKi; subject: `Cc1ccc(C(=O)C(=O)c2ccccc2)cc1[N+](=O)[O-]`
Key: 7.62

Exercise: Item under review: `O=C(C(=O)c1ccc(Cl)cc1)c1ccccc1` . Reported pKi?
Key: 7.28

###

testTarget: Liver carboxylesterase 1 (Oryctolagus cuniculus)
testProtocol: Inhibition constant against rabbit liver carboxylesterase using 4-MUA (4-methylumbelliferone acetate)
Would you kindly list Ki for each of these molecules?
Provide only the numeric value, understood in nM.

Exercise: Fill in the blank: the reported Ki of `Cc1ccc(C(=O)C(=O)c2ccccc2)cc1[N+](=O)[O-]` is ____.
Key: 4

Exercise: Which Ki value is on record for `O=C(C(=O)c1ccc(Cl)cc1)c1ccc(Cl)cc1` ?
Key: 1.3

Exercise: Ki lookup needed for `O=C(C(=O)c1ccc(Br)cc1)c1ccc(Br)cc1` , thanks.
Key: 0.17

Exercise: Value lookup for Ki; key = `O=C(C(=O)c1ccc(Cl)cc1)c1ccccc1`
Key: 1.7

Exercise: Reported Ki, molecule `Cc1ccc(C(=O)C(=O)c2ccccc2)cc1C` : ____
Key: 4.4

Exercise: Sample `O=C(C(=O)c1ccc(C(=O)C(=O)c2ccccc2)cc1)c1ccccc1` — what was its Ki?
Key: 2.1

###

testTarget: Liver carboxylesterase 1 (Oryctolagus cuniculus, UniProt P12337)
Sequence (P12337 whole entry): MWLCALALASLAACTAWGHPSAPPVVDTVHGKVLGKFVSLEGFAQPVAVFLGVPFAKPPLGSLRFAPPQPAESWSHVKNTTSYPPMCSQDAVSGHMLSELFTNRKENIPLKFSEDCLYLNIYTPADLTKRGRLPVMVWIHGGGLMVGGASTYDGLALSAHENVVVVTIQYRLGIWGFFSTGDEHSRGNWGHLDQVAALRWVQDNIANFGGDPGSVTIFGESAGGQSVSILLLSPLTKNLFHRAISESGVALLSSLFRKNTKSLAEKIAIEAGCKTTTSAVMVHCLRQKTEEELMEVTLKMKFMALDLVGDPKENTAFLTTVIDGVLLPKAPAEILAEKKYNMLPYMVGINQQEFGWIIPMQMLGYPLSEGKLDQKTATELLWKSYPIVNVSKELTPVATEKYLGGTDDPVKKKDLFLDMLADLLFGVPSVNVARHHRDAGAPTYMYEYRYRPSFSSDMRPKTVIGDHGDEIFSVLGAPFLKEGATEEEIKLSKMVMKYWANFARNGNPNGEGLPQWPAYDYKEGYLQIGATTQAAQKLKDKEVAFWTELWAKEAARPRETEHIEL
testProtocol: Inhibition constant against rabbit liver carboxylesterase using o-NPA (nitrophenyl acetate)
measurementName: pKi
Convention used: pKi is expressed as -log10 of the molar concentration.

Exercise: So what's the measured pKi for this one? `O=C(C(=O)c1ccc(Cl)cc1)c1ccc(Cl)cc1`
Key: 8.02

###

I'd appreciate it if you could supply Ki values for the items below.

Exercise: Find Ki (Acetylcholinesterase (Homo sapiens, UniProt P22303)) for the entry `CC(=O)CCC(=O)c1ccccc1`
Key: > 100 µM

Exercise: What is its Ki for Acetylcholinesterase (Homo sapiens, UniProt P22303)? Entry: `CC1C(=O)CCCC1=O`
Key: > 100 µM

Exercise: // lookup Ki | system=Acetylcholinesterase (Homo sapiens, UniProt P22303) | key= O=S(=O)(Cc1ccccc1)c1ccccc1 [BENZYLSULFONYLBENZENE]
Key: > 100 µM

Exercise: Can you look up Ki on Acetylcholinesterase (Homo sapiens, UniProt P22303) for O=C1C=CC(=O)C=C1 [BENZOQUINONE] ?
Key: 0.955 µM

Exercise: Hi! What's the reported Ki for O=C(CC(=O)c1ccccc1)c1ccccc1 [DIBENZOYLMETHANE] on Acetylcholinesterase (Homo sapiens, UniProt P22303)?
Key: > 100 µM

Exercise: Request - read-out Ki | tested on Acetylcholinesterase (Homo sapiens, UniProt P22303) | compound CC(=O)C(C)=O [BUTANEDIONE]
Key: > 100 µM

Exercise: Please provide the recorded Ki for `O=C1CCCCC1=O` , tested on Acetylcholinesterase (Homo sapiens, UniProt P22303).
Sequence (P22303 whole entry): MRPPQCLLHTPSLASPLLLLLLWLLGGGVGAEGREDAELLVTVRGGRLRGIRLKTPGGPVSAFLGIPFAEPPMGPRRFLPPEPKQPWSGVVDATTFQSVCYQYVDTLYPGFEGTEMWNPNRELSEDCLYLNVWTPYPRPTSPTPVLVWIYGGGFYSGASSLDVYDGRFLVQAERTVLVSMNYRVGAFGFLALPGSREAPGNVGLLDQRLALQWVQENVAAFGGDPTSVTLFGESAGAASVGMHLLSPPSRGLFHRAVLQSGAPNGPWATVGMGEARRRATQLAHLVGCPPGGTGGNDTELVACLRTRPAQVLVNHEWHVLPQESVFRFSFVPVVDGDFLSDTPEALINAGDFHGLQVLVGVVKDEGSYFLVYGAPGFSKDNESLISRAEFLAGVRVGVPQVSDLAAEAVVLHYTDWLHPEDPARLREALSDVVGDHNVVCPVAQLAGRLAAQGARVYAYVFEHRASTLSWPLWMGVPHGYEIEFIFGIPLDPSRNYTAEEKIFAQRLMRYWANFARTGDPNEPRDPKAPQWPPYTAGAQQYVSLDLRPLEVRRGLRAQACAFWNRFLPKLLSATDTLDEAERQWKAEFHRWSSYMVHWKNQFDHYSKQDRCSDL
Key: > 100 µM

Exercise: Form: Entry = `CC1C(=O)CCC1=O` | System = Acetylcholinesterase (Homo sapiens, UniProt P22303) | Ki = ____
Key: > 100 µM

Exercise: Value wanted: Ki (Acetylcholinesterase (Homo sapiens, UniProt P22303)) of entry `O=S(=O)(Cc1ccccc1)Cc1ccccc1`
Key: > 100 µM

Exercise: For the record CC1NC(=O)C(=O)OC1C (centres undefined) , what value of Ki is listed for Acetylcholinesterase (Homo sapiens, UniProt P22303)?
Key: > 100 µM

Exercise: Observed Ki on Acetylcholinesterase (Homo sapiens, UniProt P22303) for `O=C1CCCC(=O)C1` , please.
Key: > 100 µM

Exercise: Which Ki is reported with Acetylcholinesterase (Homo sapiens, UniProt P22303) for this entry: OC(c1ccccc1)C(O)c1ccccc1 (centres undefined) ?
Key: > 100 µM

Exercise: Lab note: need Ki for `CC(C)(C)C1=CC(=O)C(=O)C(C(C)(C)C)=C1` on Acetylcholinesterase (Homo sapiens, UniProt P22303), anyone have it?
Key: > 100 µM

Exercise: API: value(readout= Ki, system= Acetylcholinesterase (Homo sapiens, UniProt P22303), query= `[O-][S+](Cc1ccccc1)Cc1ccccc1` )
Key: > 100 µM

###

testTarget: Liver carboxylesterase 1 (Homo sapiens)
Sequence (P23141 whole entry): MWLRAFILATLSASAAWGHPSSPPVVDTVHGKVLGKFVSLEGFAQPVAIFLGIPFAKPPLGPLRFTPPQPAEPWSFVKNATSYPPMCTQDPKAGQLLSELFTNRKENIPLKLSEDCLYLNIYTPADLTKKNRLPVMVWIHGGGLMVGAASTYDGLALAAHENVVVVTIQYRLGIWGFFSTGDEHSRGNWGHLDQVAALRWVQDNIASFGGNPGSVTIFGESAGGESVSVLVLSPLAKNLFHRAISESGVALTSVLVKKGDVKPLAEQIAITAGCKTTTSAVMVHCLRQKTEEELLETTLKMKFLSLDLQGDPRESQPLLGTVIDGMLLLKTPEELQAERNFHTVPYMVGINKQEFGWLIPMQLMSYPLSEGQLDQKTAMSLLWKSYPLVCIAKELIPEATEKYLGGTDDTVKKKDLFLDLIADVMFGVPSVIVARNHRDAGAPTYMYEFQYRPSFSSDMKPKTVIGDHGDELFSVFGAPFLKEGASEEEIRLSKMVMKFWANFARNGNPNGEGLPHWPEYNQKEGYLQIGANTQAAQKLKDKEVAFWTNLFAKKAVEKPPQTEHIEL
testProtocol: Inhibition constant against human liver carboxylesterase 1 using 4-MUA (4-methylumbelliferone acetate)
pKi: −log10 of the molar value.
Label MET when pKi is at or above 8; otherwise label NOT MET.

Exercise: Say whether `O=C(C(=O)c1ccc(Cl)cc1)c1ccc(Cl)cc1` shows pKi of 8 or more.
Key: MET

Exercise: Given `O=C(C(=O)c1ccc(Br)cc1)c1ccc(Br)cc1` , state whether its pKi is at least 8.
Key: MET

Exercise: Threshold query (pKi >= 8) on `O=C(C(=O)c1ccc(Cl)cc1)c1ccccc1`
Key: MET

Exercise: Say whether `Cc1ccc(C(=O)C(=O)c2ccccc2)cc1C` shows pKi of 8 or more.
Key: NOT MET

###

testTarget: Liver carboxylesterase 1 (Homo sapiens)
testProtocol: Inhibition constant against human liver carboxylesterase 1 (hCE1) using nitrophenyl acetate (o-NPA) as substrate
measurementName: Ki

Exercise: For `O=S(=O)(Cc1ccccc1)Cc1ccccc1` , what is its reported Ki?
Key: > 100 µM

Exercise: Look up Ki: CC1CC(C)(C)CC(=O)C1=O (stereo not drawn)
Key: > 100 µM

Exercise: Give the measured Ki of `O=C1CCCC(=O)C1` .
Key: > 100 µM

Exercise: Ki for `COC(OC)(C(=O)c1ccccc1)c1ccccc1` ?
Key: 15.3 µM

Exercise: What does the record list as Ki for `O=C1C(=O)C(Cl)=C(Cl)C(Cl)=C1Cl` ?
Key: 5.44 µM

Exercise: // query Ki value for entry `O=S(=O)(Cc1ccccc1)c1ccccc1`
Key: > 100 µM

Exercise: Data request, read-out Ki, for `O=C1CCCCC1=O`
Key: > 100 µM

Exercise: Fill blank: measured Ki of the compound `CC(C)(C)C1=CC(=O)C(=O)C(C(C)(C)C)=C1` is ____.
Key: 0.0886 µM

Exercise: Which Ki is reported for this compound? `CC1C(=O)CCCC1=O`
Key: > 100 µM

Exercise: Given COc1ccc(C(=O)C(O)c2ccc(OC)cc2)cc1 (stereo not drawn) , state its recorded Ki.
Key: > 100 µM

Exercise: Look at this compound and give its reported Ki. OC(c1ccccc1)C(O)c1ccccc1 (stereo not drawn)
Key: > 100 µM

Exercise: # Ki lookup, item `CC1C(=O)CCC1=O`
Key: > 100 µM

Exercise: Find the recorded Ki belonging to `O=C1C(Cl)=C(Cl)C(=O)C(Cl)=C1Cl` and report it.
Key: 0.0839 µM

Exercise: Returns the measured Ki for the input compound. Input: `CC(=O)C(=O)c1ccccc1`
Key: 5.27 µM

Exercise: Please report the recorded Ki for Oc1nc2cc(Cl)c(Cl)cc2nc1O [2,3-DIHYDROXY-6,7-DICHLOROQUINOXALINE] .
Key: > 100 µM

Exercise: Could you tell me which Ki is on file for `CC(=O)CC(C)=O` ?
Key: > 100 µM

Exercise: Look at this compound and give its reported Ki. `O=C(O)c1ccc(C(=O)c2ccccc2)cc1`
Key: > 100 µM

Exercise: Value lookup for Ki; key = `CCCCC(=O)C(C)=O`
Key: 16.9 µM
